system: SARS-COV-2; assay: microbe, parasite or virus in culture; assay type: cell-based; conditions: Severe acute respiratory syndrome coronavirus 2; Vero cells, 24 hours infection; read-out: SARS-COV-2 inhibition (IC50)
pIC50: −log10 of the molar value.
// reported pIC50 for each item listed

MOLECULE	TESTED_SYSTEM	pIC50
COc1cc2cc3c(c(-c4cnc(NCc5ccc(C)o5)nc4)c2cc1OC)C(=O)OC3	SARS-COV-2	5.02
CCNc1cccc(-c2c3c(cc4cc(OC)c(OC)cc24)COC3=O)c1	SARS-COV-2	4.78
COc1cc2cc3c(c(-c4cnc(N)cn4)c2cc1OC)C(=O)OC3	SARS-COV-2	< 4.30
COc1cc2cc3c(c(-c4cc(C)nc5c(F)cc(F)cc45)c2cc1OC)C(=O)OC3	SARS-COV-2	< 4.30

Summary: COc1cc2cc3c(c(-c4cc5c(cc4OC(C)=O)OCO5)c2cc1OC)C(=O)OC3 , SARS-COV-2, pIC50 = 5.59

Summary: COc1cc2cccc(-c3c4c(cc5cc(OC)c(OC)cc35)COC4=O)c2cn1 , SARS-COV-2, pIC50 = < 4.30

Summary: CCC(C)Oc1ncc(-c2c3c(cc4cc(OC)c(OC)cc24)COC3=O)cn1 (centres unmarked) , SARS-COV-2, pIC50 = < 4.30

Summary: COc1cc2cc3c(c(-c4ccc(N(C)C(=O)N5CCOCC5)nc4)c2cc1OC)C(=O)OC3 , SARS-COV-2, pIC50 = < 4.30

---

tested on: SARS-COV-2; test: microbe, parasite or virus in culture; assay type: cell-based; parameters: unit not given here; details: SARS-COV-2; values >50 assumed to be 50
QUANTITY_MEASURED: SI (Selectivity Index, CC50/IC50)
# print the numeric value only

Examples with answers:
COMPOUND	SI (Selectivity Index, CC50/IC50)
COc1cc2cc3c(c(-c4cc5c(cc4OC(=O)[C@@H]4CCCN4)OCO5)c2cc1OC)C(=O)OC3 [Example 273]	36.52
CCN(Cc1ccncc1)c1ccc(-c2c3c(cc4cc(OC)c(OC)cc24)COC3=O)cn1 [Example 226]	7.47
COc1cc2cc3c(c(-c4ccc5c(O)cc(C)nc5c4C)c2cc1OC)C(=O)OC3 [Example 146]	1.0
COc1cc2cc3c(c(-c4cc5c(cc4OC(=O)c4ccccn4)OCO5)c2cc1OC)C(=O)OC3 [Example 169]	40.73
COc1cc2cc3c(c(-c4cnc(Oc5cccc6ccccc56)nc4)c2cc1OC)C(=O)OC3 [Example 21]	1.00
COc1cc2cc3c(c(-c4cnc(N5CCCC(C)C5)nc4)c2cc1OC)C(=O)OC3 (centres unmarked) [Example 59]	20.79
CC[C@H](C)[C@H](N)C(=O)Oc1cc2c(cc1-c1c3c(cc4cc(OC)c(OC)cc14)COC3=O)OCO2 [Example 270]	122.64

Field: next compound
The recorded SI (Selectivity Index, CC50/IC50) for COc1cc2cc3c(c(-c4ccc(N5CCOCC5)nc4)c2cc1OC)C(=O)OC3 [Example 124] is 176.18

---

// reported IC50 for each item listed
system: SARS-COV-2; assay: microbe, parasite or virus in culture; type: cell-based; conditions: Severe acute respiratory syndrome coronavirus 2; Vero cells, 24 hours infection; read-out: SARS-COV-2 inhibition (IC50)

COMPOUND	TESTED_SYSTEM	MEAS_VALUE
COc1cc2cc3c(c(-c4ccc(N(C)C5CCCCC5)nc4)c2cc1OC)C(=O)OC3 [Example 175]	SARS-COV-2	1.19 µM
COc1cc2cc3c(c(-c4ccc(N(C)C)nc4)c2cc1OC)C(=O)OC3 [Example 163]	SARS-COV-2	0.06 µM
CCCCN(CCCC)c1ncc(-c2c3c(cc4cc(OC)c(OC)cc24)COC3=O)cn1 [Example 73]	SARS-COV-2	7.66 µM
CCN(CC)c1ccc(-c2c3c(cc4cc(OC)c(OC)cc24)COC3=O)cc1 [Example 249]	SARS-COV-2	0.5 µM
COc1cc2cc3c(c(-c4ccnc(Cl)c4)c2cc1OC)C(=O)OC3 [Example 184]	SARS-COV-2	> 50 µM
COc1cc2cc3c(c(N[C@H]4CCc5c(cccc5OC)C4)c2cc1OC)C(=O)OC3 [Example 1]	SARS-COV-2	> 50 µM
COc1ncc(-c2c3c(cc4cc(OC)c(OC)cc24)COC3=O)cn1 [Example 26]	SARS-COV-2	5.25 µM

Field: next compound
The recorded IC50 for CCN(c1ccc(-c2c3c(cc4cc(OC)c(OC)cc24)COC3=O)cn1)c1ncn(CC)n1 [Example 207] is 6.6 µM

---

assay: in vitro; settings: African green monkey
QUANTITY_MEASURED: CC50 at 24 h (µM)
Hi! Could you send only the number? It should be in µM, unit omitted.

Examples with answers:
COMPOUND	UOM	MEAS_VALUE
COc1cc2cc3c(c(-c4ccc5c(c4)OC(F)(F)O5)c2cc1OC)C(=O)OC3 [Example 221]	µM	457
COc1cc2cc3c(c(-c4ccc(N(C)C5Cc6ccccc6C5)nc4)c2cc1OC)C(=O)OC3 [Example 194]	µM	47100
COc1cc2cc3c(c(-c4ccc(N(C)c5cccc(C#N)c5)nc4)c2cc1OC)C(=O)OC3.Cl [Example 237]	µM	1020

The recorded CC50 at 24 h for NC(=O)c1ncn([C@@H]2O[C@H](CO)[C@@H](O)[C@H]2O)n1 [Ribavirin] is 1270

---

test system: SARS-COV-2; experiment: microbe, parasite or virus in culture; type: cell-based; settings: Severe acute respiratory syndrome coronavirus 2; Vero cells, 24 hours infection; read-out: SARS-COV-2 inhibition (IC50)
QUANTITY_MEASURED: IC50 (µM)
Hi! Could you send only the number? It should be in µM, unit omitted.

Examples with answers:
MOLECULE	MEAS_VALUE
COc1cc2cc3c(c(-c4cnc(N5CCC[C@H]5C(=O)N[C@@H](C)c5ccc(F)cc5)nc4)c2cc1OC)C(=O)OC3	13.6
COc1cc2cc3c(c(-c4ccc(N(C)CC5CCCO5)nc4)c2cc1OC)C(=O)OC3 (centres unmarked)	4.96
COc1cc2cc3c(c(-c4ccc(N(C)C(C)=O)nc4)c2cc1OC)C(=O)OC3	20.4
COc1cc2cc3c(c(-c4ccc(N(C)CC(C)C)nc4)c2cc1OC)C(=O)OC3	0.93

The recorded IC50 for COc1cc2cc3c(c(-c4ccc(N5CCC(O)CC5)nc4)c2cc1OC)C(=O)OC3 is 2.91

The recorded IC50 for COc1cc2cc3c(c(-c4cnc(N5CCC(N(C)C)CC5)nc4)c2cc1OC)C(=O)OC3 is 6.46

The recorded IC50 for CCN(CC1CCCO1)c1ccc(-c2c3c(cc4cc(OC)c(OC)cc24)COC3=O)cn1 (centres unmarked) is 7.74

The recorded IC50 for COc1cc2cc3c(c(-c4ccc(N(C)C5CCCC5)nc4)c2cc1OC)C(=O)OC3 is 0.28

The recorded IC50 for COc1cc2cc3c(c(-c4cnc(N(C)c5cccc(C(F)(F)F)c5)nc4)c2cc1OC)C(=O)OC3 is 0.96

The recorded IC50 for COc1cc2cc3c(c(-c4ccc5[nH]ccc5c4)c2cc1OC)C(=O)OC3 is 4.03

The recorded IC50 for COc1cc2cc3c(c(N4CC(C)CC(C)C4)c2cc1OC)C(=O)OC3 (centres unmarked) is 11.2

The recorded IC50 for COc1cc2cc3c(c(-c4ccc(N(C)c5ncn(C)n5)nc4)c2cc1OC)C(=O)OC3 is 17.9

---

tested on: SARS-COV-2; experiment: microbe, parasite or virus in culture; format: cell-based; parameters: unit not given here; settings: SARS-COV-2; values >50 assumed to be 50
Structures can show the parent of a compound that is named as a salt.
QUANTITY_MEASURED: SI (Selectivity Index, CC50/IC50)
# print the numeric value only

Examples with answers:
COMPOUND	MEAS_VALUE
CC[C@@H]1CCCCN1c1ncc(-c2c3c(cc4cc(OC)c(OC)cc24)COC3=O)cn1 [Example 113]	50.52
COc1cc2cc3c(c(-c4cnc(N(C)C)cn4)c2cc1OC)C(=O)OC3 [Example 31]	11.86
COc1cc2cc3c(c(-c4ccc5nc(C)ccc5c4)c2cc1OC)C(=O)OC3 [Example 116]	43.72
COc1cc2cc3c(c(-c4cccc5ncccc45)c2cc1OC)C(=O)OC3 [Example 132]	1.0
COc1cc2cc3c(c(-c4cc5c(cc4OC(=O)C(N)C(C)C)OCO5)c2cc1OC)C(=O)OC3.Cl (stereo in doubt) [Example 269]	94.66
COc1cc2cc3c(c(-c4ccnc(Cl)c4)c2cc1OC)C(=O)OC3 [Example 184]	1.0

The recorded SI (Selectivity Index, CC50/IC50) for CCN(CCc1cn(CC)c2ccccc12)c1ccc(-c2c3c(cc4cc(OC)c(OC)cc24)COC3=O)cn1 [Example 197] is 2.88

The recorded SI (Selectivity Index, CC50/IC50) for CCCN(CC1CC1)c1ncc(-c2c3c(cc4cc(OC)c(OC)cc24)COC3=O)cn1 [Example 105, hydrochloride] is 9.56

The recorded SI (Selectivity Index, CC50/IC50) for COc1cc2cc3c(c(-c4cnc5ccc(N6CCOCC6)nn45)c2cc1OC)C(=O)OC3 [Example 220] is 1.00

The recorded SI (Selectivity Index, CC50/IC50) for CCCOCCN(CCC)c1ncc(-c2c3c(cc4cc(OC)c(OC)cc24)COC3=O)cn1 [Example 42] is 1.00

The recorded SI (Selectivity Index, CC50/IC50) for COc1cc2cc3c(c(-c4ccc5nccc(Cl)c5c4)c2cc1OC)C(=O)OC3 [Example 138] is 1.33

The recorded SI (Selectivity Index, CC50/IC50) for COc1cc2cc3c(c(-c4ccc5c(c4)N(C)CCC5)c2cc1OC)C(=O)OC3 [Example 170] is 24.25

The recorded SI (Selectivity Index, CC50/IC50) for COc1cc2cc3c(c(-c4ccc(N5CCC(Cl)CC5)nc4)c2cc1OC)C(=O)OC3 [Example 142] is 25.00

The recorded SI (Selectivity Index, CC50/IC50) for COc1cc2cc3c(c(-c4cnc(N(C)c5ccc(C)c(C)c5)nc4)c2cc1OC)C(=O)OC3.Cl [Example 213] is 2.81

The recorded SI (Selectivity Index, CC50/IC50) for COc1cc2cc3c(c(-c4ccc(N5CCCCC5)cc4)c2cc1OC)C(=O)OC3 [Example 242] is 5.45

The recorded SI (Selectivity Index, CC50/IC50) for CCCCN(C)c1ccc(-c2c3c(cc4cc(OC)c(OC)cc24)COC3=O)cn1 [Example 180] is 73.59

Origin of the recorded values: patent US20240368104A1
